Data provenance is PubChem BioAssay AID1645860.

molecular target: Ubiquitin carboxyl-terminal hydrolase 30 (Homo sapiens) (UniProt Q70CQ3); assay: inhibitors of human USP30 deubiquitinase (AID 1645860); settings: purified USP30, Ub-rhodamine cleavage fluorescence; at 25 µM
Sequence (Q70CQ3 whole entry, looked up): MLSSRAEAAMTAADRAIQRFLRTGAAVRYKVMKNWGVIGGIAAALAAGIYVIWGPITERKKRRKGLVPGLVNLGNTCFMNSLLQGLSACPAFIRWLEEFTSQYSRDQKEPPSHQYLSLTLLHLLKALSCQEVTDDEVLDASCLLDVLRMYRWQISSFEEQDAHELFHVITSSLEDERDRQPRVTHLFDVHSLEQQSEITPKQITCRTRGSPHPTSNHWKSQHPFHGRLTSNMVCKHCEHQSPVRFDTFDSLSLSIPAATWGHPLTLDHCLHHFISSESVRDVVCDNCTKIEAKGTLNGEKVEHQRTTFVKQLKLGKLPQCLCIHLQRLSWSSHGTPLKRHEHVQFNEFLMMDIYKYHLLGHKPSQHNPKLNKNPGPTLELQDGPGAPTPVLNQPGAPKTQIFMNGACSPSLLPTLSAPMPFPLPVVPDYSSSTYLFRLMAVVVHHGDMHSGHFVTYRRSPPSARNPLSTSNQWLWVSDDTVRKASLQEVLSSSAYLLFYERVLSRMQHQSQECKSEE
The whole screen tested about 47,000 compounds, of which about 2,500 (5.3%) were called active. No stated cut-off is given here; in the data, active means inhibition above about 30%; inactive means the rest. What follows is part of a selection rich in actives, with near analogues and random picks from the rest. *1 amine or outer side, *2 acyl side, *3 side chain or, on linkers, in order; H or OH if unused. Where a SMILES comes first, the peptide text is derived from it. [ ]: non-standard residue; d: D form. ξ: configuration not given here. ξβ3hGly(undecyl) = CCCCCCCCCCCC(CC(=O)[*:2])N[*:1]
Log the outcome using a class from T = active, F = inactive

Solved entries (count: 3):
Compound	Class label
COc1ccccc1-n1ccnc(NC(=O)c2cccc(F)c2)c1=O	F
Cc1nc(C2CCN(C(=O)C(C)(C)C)CC2)cc(N2CC3(CCOCC3)OC2=O)n1	F
CCOCCCNc1ncnc2c1sc1nc(N3CCOCC3)c3c(c12)CC(C)(C)OC3	F

// param item: Cn1cc(-c2cnc3n2CCC32CCN(S(=O)(=O)c3cccc(F)c3)CC2)cn1 ; yields the recorded call
F

// param item: CCCCCCCCCCCC1CC(=O)NC(CC(N)=O)C(=O)NC(Cc2ccc(O)cc2)C(=O)NC(CC(N)=O)C(=O)NC(CCC(N)=O)C(=O)N2CCCC2C(=O)NC(CC(N)=O)C(=O)NC(CO)C(=O)N1 (stereo not drawn) (cyclo([ξβ3hGly(undecyl)]NYNQPNS); configuration not given here) ; yields the recorded call
F
